# Test system: Cutibacterium acnes
# assay-remarks: Antimicrobial activity Propionibacterium acnes ATCC 11827 after 2 days by broth dilution method
# Assay type: functional
# test-parameters: Cutibacterium acnes, ATCC 11827, 48 h
What log10(MBC) was measured for each of the following?
Scale: log10; quantity: MBC; unit before log: µg/mL

Before answering, review these 8 worked examples.
molecule	measured-target	log10(MBC)
CCCCCCCCCCCCCO [TRIDECAN-1-OL]	Cutibacterium acnes	0.50
CCCCCCCCCCO [DECANOL]	Cutibacterium acnes	1.70
CCCCCCCCCCCCO [DODECANOL]	Cutibacterium acnes	0.80
CCCCCCCCCO [NONANOL]	Cutibacterium acnes	2.30
CCCCCCCO [1-HEPTANOL]	Cutibacterium acnes	2.90
CCCCCCCCCCCO [UNDECANOL]	Cutibacterium acnes	1.40
CCCCCCCCCCCCCCCO	Cutibacterium acnes	0.19
CCCCCCCCCCCCCCO [MYRISTYL ALCOHOL]	Cutibacterium acnes	0.19

Problem: Field request: log10(MBC) | item: CCCCCCCCCCCCCCCCO [CETYL ALCOHOL]
Solution: 0.19
